test target: T1, biotinylated hBLyS-ECD (human, UniProt Q9Y275 134-285, biotinylated with Biotin-X-X-NHS (molar ratio 7:1), sites not stated)
T1 construct: The hBLyS-ECD of Embodiment 1 after biotinylation (Embodiment 2); also called biotinylated immunogen; BLyS protein; not shown: His tag of the pCPC vector
T1 sequence (Q9Y275 134-285): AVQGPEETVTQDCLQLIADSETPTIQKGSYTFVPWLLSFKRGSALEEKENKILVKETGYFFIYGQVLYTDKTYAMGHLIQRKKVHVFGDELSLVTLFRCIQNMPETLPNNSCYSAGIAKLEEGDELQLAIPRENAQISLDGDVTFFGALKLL
test name: receptor-ligand blocking ELISA: BAFF R coated, biotinylated hBLyS-ECD added with titrated antibody, HRP-avidin; blocked partner: BAFF R
metric name: IC50 (read off the curve)

Q: Return reported IC50 (read off the curve); argument: L9G7 (antibody, human IgG1, V domains shown) VH: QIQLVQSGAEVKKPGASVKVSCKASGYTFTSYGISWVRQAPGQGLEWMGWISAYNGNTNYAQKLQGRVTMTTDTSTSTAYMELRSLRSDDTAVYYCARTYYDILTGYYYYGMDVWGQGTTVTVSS VL: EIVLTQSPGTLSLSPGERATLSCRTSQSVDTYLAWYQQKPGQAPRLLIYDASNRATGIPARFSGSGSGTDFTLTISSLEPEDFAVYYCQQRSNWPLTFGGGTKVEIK
Ans: ~0.7 nM

Q: Follow-up entry: 97A3C2H4 (antibody, V domains shown, Mouse hybridoma antibody purified on Protein G) VH: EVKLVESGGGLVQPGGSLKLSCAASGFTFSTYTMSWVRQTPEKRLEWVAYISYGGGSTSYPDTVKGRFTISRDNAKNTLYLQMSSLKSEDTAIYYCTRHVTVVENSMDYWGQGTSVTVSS VL: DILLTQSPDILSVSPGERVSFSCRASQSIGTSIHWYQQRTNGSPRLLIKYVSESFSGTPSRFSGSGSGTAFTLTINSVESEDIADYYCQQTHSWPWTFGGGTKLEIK
Ans: ~0.3 nM

Q: Follow-up entry: 111D10D6G3 (antibody, V domains shown, Mouse hybridoma antibody purified on Protein G) VH: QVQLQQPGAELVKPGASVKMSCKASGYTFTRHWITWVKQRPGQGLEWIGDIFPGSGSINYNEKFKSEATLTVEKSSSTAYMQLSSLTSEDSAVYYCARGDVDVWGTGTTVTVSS VL: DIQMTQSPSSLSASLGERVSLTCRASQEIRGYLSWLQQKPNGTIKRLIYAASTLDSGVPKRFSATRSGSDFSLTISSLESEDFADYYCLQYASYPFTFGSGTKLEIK
Ans: ~0.1 nM

All figures here come from patent US20210347873A1.
